- TARGET: activated ERK2 (Homo sapiens (Human))
- Sequence (P28482 whole entry): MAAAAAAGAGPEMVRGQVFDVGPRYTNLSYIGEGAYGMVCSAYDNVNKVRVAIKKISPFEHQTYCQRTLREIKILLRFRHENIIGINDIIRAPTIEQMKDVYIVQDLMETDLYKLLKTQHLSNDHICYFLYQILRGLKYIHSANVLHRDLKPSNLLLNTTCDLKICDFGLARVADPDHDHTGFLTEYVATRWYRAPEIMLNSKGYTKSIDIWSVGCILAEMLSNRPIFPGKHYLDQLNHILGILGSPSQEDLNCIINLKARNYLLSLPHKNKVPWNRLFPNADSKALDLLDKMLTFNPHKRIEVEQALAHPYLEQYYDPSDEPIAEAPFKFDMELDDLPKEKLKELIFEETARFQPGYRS
- PROTOCOL DESCRIPTION: Activated ERK2 (20 pM) Kinase Assay (AlphaScreen, ERKtide phosphorylation)
- Format: biochemical
- CONDITION DESCRIPTION: 0.02 nM ERK2, 400 nM ERKtide peptide, 35 μM ATP, 30 min preincubation
RESULT TYPE: IC50 (nM)

Below are worked cases with known answers.
IC50 for C[C@@H](NC(=O)c1ccc(-c2cc(C3CCNC(=O)C3)cnc2N)cc1F)c1cccc(Cl)c1 (mixture of isomers) is 0.536

IC50 for `CO[C@H]1CC[C@H](c2cnc(N)c(-c3ccc(C(=O)N[C@H](CNC(C)=O)c4cccc(Cl)c4)c(F)c3)n2)CC1` is 0.249

IC50 for `Cc1cc(C(=O)N[C@H](CO)c2ccccc2)ccc1-c1cc(C2CCOCC2)cnc1N` is 331

a = Cc1c(-c2cnc(N)c(-c3ccc(C(=O)N[C@H](CO)c4cccc(Cl)c4)c(F)c3)c2)cnn1C(F)F
b = Nc1ncc(C2CCOCC2)cc1-c1ccc(C(=O)N[C@H](CO)c2ccccc2)cc1
input: Smaller IC50 value, a vs b ? // output: label of the selected item
output: a

I = Cc1nn(C(F)F)cc1-c1cnc(N)c(-c2ccc(C(=O)N[C@H](CO)c3cc(F)cc(CF)c3)c(F)c2)c1
II = CNC[C@@H](NC(=O)c1ccc(-c2nc([C@H]3CC[C@H](O)[C@H](F)C3)cnc2N)cc1F)c1cc(F)cc(Br)c1
input: I need your help: which of the pair I , II has higher IC50? // output: label of the selected item
output: II

a = Nc1ncc([C@H]2CC[C@@H](O)CC2)nc1-c1ccc(C(=O)N[C@H](CO)c2cc(F)cc(I)c2)c(F)c1
b = Nc1ncc([C@H]2CCC(F)(F)[C@H](O)C2)nc1-c1ccc(C(=O)N[C@H](CO)c2cccc(Cl)c2)c(F)c1
input: Smaller IC50 value, a vs b ? // output: label of the selected item
output: a
